The following compounds are listed with their measured Emax at 10 µM values.
# ASSAY_TARGET: GST-hLGK1 (GST added to the amino terminal of human liver GK) (Homo sapiens, UniProt P35557)
# Construct: with a BamHI site added to immediately before the initiation codon; made in house; host or cells: Escherichia coli BL21 (Stratagene), plasmid pGEX6P-2/hLGK1
# Sequence (P35557 1-464 isoform P35557-3): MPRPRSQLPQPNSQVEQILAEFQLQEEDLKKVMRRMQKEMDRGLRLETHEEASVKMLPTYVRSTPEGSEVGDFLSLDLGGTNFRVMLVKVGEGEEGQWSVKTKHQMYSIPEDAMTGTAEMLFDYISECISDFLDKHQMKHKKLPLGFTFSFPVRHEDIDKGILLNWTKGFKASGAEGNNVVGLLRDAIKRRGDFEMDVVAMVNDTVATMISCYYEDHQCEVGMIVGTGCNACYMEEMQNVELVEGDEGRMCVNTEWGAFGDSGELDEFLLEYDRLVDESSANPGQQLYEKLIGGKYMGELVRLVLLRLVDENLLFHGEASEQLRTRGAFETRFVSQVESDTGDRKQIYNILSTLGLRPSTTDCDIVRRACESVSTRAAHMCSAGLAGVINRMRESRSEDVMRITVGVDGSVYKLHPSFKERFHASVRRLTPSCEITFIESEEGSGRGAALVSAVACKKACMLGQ
# EXPERIMENTAL_DETAILS: Measurement of GK activation value
# Format: biochemical
# MEASUREMENT_SETUP: test compound final concentration 10 μmol/L; reaction rate divided by that of control group (50% DMSO without test compound); Mant-ATP substrate, D-glucose, 37° C., 60 min
RECORDED_ENDPOINT: Emax at 10 µM (%)

| COMPOUND | REPORTED_RESULT |
| --- | --- |
| O=S(=O)(c1ccc(C(CC2CCOCC2)c2ccc(-c3ncc(C(O)CO)s3)[nH]2)cc1)C1CC1 (stereo not shown) [Example 34] | 178 |
| CCOC(=O)c1[nH]c(C(CC2CCCC2)c2ccc(S(C)(=O)=O)cc2)cc1C (stereo not shown) [Example 8] | 225 |
| CS(=O)(=O)c1ccc(C(CC2CCOCC2)c2ccc(-c3ccc(C(O)CO)cn3)[nH]2)cc1Cl (stereo not shown) [Example 91] | 142 |
| CC(O)c1nnc(-c2ccc(C(CC3CCOCC3)c3ccc(S(=O)(=O)C4CC4)cc3)[nH]2)s1 (stereo not shown) [Example 225] | 141 |

----------
# ASSAY_TARGET: GST-hLGK1 (GST added to the amino terminal of human liver GK) (Homo sapiens)
# Construct: with a BamHI site added to immediately before the initiation codon; made in house; host or cells: Escherichia coli BL21 (Stratagene), plasmid pGEX6P-2/hLGK1
# EXPERIMENTAL_DETAILS: Measurement of GK activation value
# Format: biochemical
# MEASUREMENT_SETUP: test compound final concentration 10 μmol/L; reaction rate divided by that of control group (50% DMSO without test compound); Mant-ATP substrate, D-glucose, 37° C., 60 min
The following compounds are listed with their measured Emax at 10 µM values.
RECORDED_ENDPOINT: Emax at 10 µM (%)

| COMPOUND | RECORDED_ENDPOINT | MEASURE_UNIT | REPORTED_RESULT |
| --- | --- | --- | --- |
| CS(=O)(=O)c1ccc(C(CC2CCCC2)c2ccc(-c3nccs3)[nH]2)cc1 (stereo not drawn) | Emax at 10 µM | % | 195 |
| O=C(c1[nH]c(C(CC2CCCC2)c2ccc(S(=O)(=O)C3CC3)cc2)nc1F)C1CC1 (stereo not drawn) | Emax at 10 µM | % | 190 |
| Cn1ccc(-c2ccc(C(CC3CCCC3)c3ccc(S(C)(=O)=O)cc3)[nH]2)n1 (stereo not drawn) | Emax at 10 µM | % | 198 |
| CCCC(=O)c1[nH]c(C(CC2CCCC2)c2ccc(S(C)(=O)=O)cc2)nc1F (stereo not drawn) | Emax at 10 µM | % | 188 |
| O=S1(=O)CCN(Cc2ccc(-c3ccc(C(CC4CCOCC4)c4ccc(S(=O)(=O)C5CC5)cc4)[nH]3)nc2)CC1 (stereo not drawn) | Emax at 10 µM | % | 154 |
| CS(=O)(=O)c1ccc(C(CC2CCCC2)c2ncc(C(=O)C3CCC3)[nH]2)cc1 (stereo not drawn) | Emax at 10 µM | % | 157 |
| CS(=O)(=O)c1ccc(C(CC2CCCC2)c2ccc(-c3cnccn3)[nH]2)cc1 (stereo not drawn) | Emax at 10 µM | % | 180 |
| O=C1CC[C@H](CC(c2ccc(S(=O)(=O)C3CC3)cc2)c2nc(F)c(C(=O)C3CCC3)[nH]2)C1 (stereo partly drawn) | Emax at 10 µM | % | 218 |
| Cn1ccnc1-c1ccc(C(CC2CCCC2)c2ccc(S(C)(=O)=O)cc2)[nH]1 (stereo not drawn) | Emax at 10 µM | % | 227 |
| CC(=O)N1CCN(Cc2ccc(-c3ccc(C(CC4CCOCC4)c4ccc(S(=O)(=O)C5CC5)cc4)[nH]3)nc2)CC1 (stereo not drawn) | Emax at 10 µM | % | 153 |
| Cc1cc(C(CC2CCCC2)c2ccc(S(C)(=O)=O)cc2)[nH]c1-c1nccs1 (stereo not drawn) | Emax at 10 µM | % | 160 |
| O=S(=O)(c1ccc(C(CC2CCOCC2)c2ccc(-c3nnc(CN4CCOCC4)s3)[nH]2)cc1)C1CC1 (stereo not drawn) | Emax at 10 µM | % | 145 |
| O=S(=O)(c1ccc(C(CC2CCOCC2)c2ccc(-c3ccc(C(CO)CO)cn3)[nH]2)cc1)C1CC1 (stereo not drawn) | Emax at 10 µM | % | 148 |
| CS(=O)(=O)c1ccc(C(CC2CCCC2)c2ccc(-c3ccccn3)[nH]2)cc1 (stereo not drawn) | Emax at 10 µM | % | 168 |
| CCS(=O)(=O)CCNCc1cnc(-c2ccc(C(CC3CCOCC3)c3ccc(S(=O)(=O)C4CC4)cc3)[nH]2)s1.Cl (stereo not drawn) [Example 160, hydrochloride] | Emax at 10 µM | % | 155 |
| CC(C)(O)C(O)c1ccc(-c2ccc(C(CC3CCOCC3)c3ccc(S(=O)(=O)C4CC4)cc3)[nH]2)nc1 (stereo not drawn) | Emax at 10 µM | % | 139 |
| O=S(=O)(c1ccc(C(CC2CCOCC2)c2ccc(-c3ccc(CN4CC[S+]([O-])CC4)cn3)[nH]2)cc1)C1CC1 (stereo not drawn) | Emax at 10 µM | % | 151 |
| O=S(=O)(c1ccc(C(CC2CCOCC2)c2ccc(-c3nccs3)[nH]2)cc1)C1CC1 (stereo not drawn) | Emax at 10 µM | % | 179 |
| CC(O)c1cnc(-c2ccc(C(CC3CCOCC3)c3ccc(S(C)(=O)=O)c(Cl)c3)[nH]2)s1 (stereo not drawn) | Emax at 10 µM | % | 148 |
| O=S(=O)(c1ccc(C(CC2CCOCC2)c2ccc(-c3ccc(Cn4cncn4)cn3)[nH]2)cc1)C1CC1 (stereo not drawn) | Emax at 10 µM | % | 152 |
| O=S(=O)(c1ccc(C(CC2CCOCC2)c2ccc(-c3nnc(CN4CC(O)C4)s3)[nH]2)cc1)C1CC1 (stereo not drawn) | Emax at 10 µM | % | 129 |
| CC(C)C(=O)c1[nH]c(C(CC2CCCC2)c2ccc(S(C)(=O)=O)cc2)nc1F (stereo not drawn) | Emax at 10 µM | % | 185 |
| Cn1cnc(-c2ccc(C(CC3CCCC3)c3ccc(S(C)(=O)=O)cc3)[nH]2)c1 (stereo not drawn) | Emax at 10 µM | % | 167 |
| CC(O)c1cnc(-c2ccc(C(CC3CCOCC3)c3ccc(S(=O)(=O)C4CC4)cc3)[nH]2)s1 (stereo not drawn) | Emax at 10 µM | % | 167 |
| COCC(O)c1ccc(-c2ccc(C(CC3CCOCC3)c3ccc(S(=O)(=O)C4CC4)cc3)[nH]2)nc1 (stereo not drawn) | Emax at 10 µM | % | 171 |
| Cc1cc(C(CC2CCCC2)c2ccc(S(C)(=O)=O)cc2)[nH]c1C(=O)O (stereo not drawn) | Emax at 10 µM | % | 173 |
| CS(=O)(=O)c1ccc(C(C[C@H]2CCC(=O)C2)c2ccc(-c3ccc(CO)cn3)[nH]2)cc1Cl (stereo partly drawn) | Emax at 10 µM | % | 142 |
| COC(OC)C(C)(O)c1cnc(-c2ccc(C(CC3CCOCC3)c3ccc(S(=O)(=O)C4CC4)cc3)[nH]2)s1 (stereo not drawn) | Emax at 10 µM | % | 148 |
| Cc1cc(C(CC2CCCC2)c2ccc(S(C)(=O)=O)cc2)[nH]c1C(N)=O (stereo not drawn) | Emax at 10 µM | % | 193 |
| O=S(=O)(c1ccc(C(CC2CCOCC2)c2ccc(-c3ccc(C(O)CO)cn3)[nH]2)cc1)C1CC1 (stereo not drawn) | Emax at 10 µM | % | 156 |
